Target under test: STAT1 (Homo sapiens)
Construct: full-length STAT1 (Uniprot #P42224-1) was expressed in E. coli; His tag (pEXP-NHis vector) (N); made in house; host or cells: E. coli T7 Express
Sequence (P42224 whole entry): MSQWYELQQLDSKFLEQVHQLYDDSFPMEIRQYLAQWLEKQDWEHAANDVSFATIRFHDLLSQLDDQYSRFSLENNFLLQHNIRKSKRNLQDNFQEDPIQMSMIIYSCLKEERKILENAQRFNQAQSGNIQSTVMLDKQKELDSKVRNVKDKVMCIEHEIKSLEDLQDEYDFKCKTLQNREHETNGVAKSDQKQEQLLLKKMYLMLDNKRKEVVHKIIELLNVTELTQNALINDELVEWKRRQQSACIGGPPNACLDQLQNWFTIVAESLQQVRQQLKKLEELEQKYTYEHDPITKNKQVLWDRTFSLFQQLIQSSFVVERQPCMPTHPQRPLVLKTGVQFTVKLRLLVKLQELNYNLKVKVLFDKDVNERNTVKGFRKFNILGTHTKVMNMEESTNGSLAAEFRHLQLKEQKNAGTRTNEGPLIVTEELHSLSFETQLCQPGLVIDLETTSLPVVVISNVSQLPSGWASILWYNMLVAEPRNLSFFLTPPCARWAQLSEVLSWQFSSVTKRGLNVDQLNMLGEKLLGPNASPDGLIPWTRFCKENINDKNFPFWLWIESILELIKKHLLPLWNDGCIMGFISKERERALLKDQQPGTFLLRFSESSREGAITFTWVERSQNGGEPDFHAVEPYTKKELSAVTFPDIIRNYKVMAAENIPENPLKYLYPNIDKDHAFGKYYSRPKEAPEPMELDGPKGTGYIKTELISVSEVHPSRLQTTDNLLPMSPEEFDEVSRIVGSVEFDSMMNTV
Experimental details: Grating-coupled interferometry (GCI) waveRAPID kinetics, immobilised full-length STAT1
Format: binding
Experimental parameters: analyte 0.5 µM; replicate 2 (second listed run, Table S2); read-out: ka
Assay readout: kon at 0.5 µM (M⁻¹ s⁻¹)
Answer in M⁻¹ s⁻¹, number only, no unit symbol.

Find the measured kon at 0.5 µM of CC[C@H](C)[C@H](NC(=O)[C@H](Cc1ccccc1)NC(=O)[C@@H](NC(=O)[C@H](CS)NC(=O)[C@H](Cc1c[nH]c2ccccc12)NC(=O)[C@H](CCSC)NC(C)=O)C(C)C)C(=O)N[C@@H](Cc1c[nH]cn1)C(=O)NCC(=O)N[C@@H](Cc1c[nH]cn1)C(=O)N[C@@H](CC(=O)O)C(=O)NCC(=O)N[C@@H](CO)C(=O)N[C@@H](CC(N)=O)C(=O)N[C@@H](CCCCN)C(=O)NCC(=O)N[C@@H](CO)C(=O)N[C@@H](CCCCN)C(=O)N[C@@H](CS)C(=O)N[C@@H](Cc1ccc(O)cc1)C(=O)N[C@H](C(N)=O)[C@@H](C)O [Peptide 5] and report it.
457000

Quote kon at 0.5 µM reported for CC[C@H](C)[C@H](NC(=O)[C@H](Cc1ccccc1)NC(=O)[C@@H](NC(=O)[C@H](CO)NC(=O)[C@H](Cc1c[nH]c2ccccc12)NC(=O)[C@H](CCSC)NC(C)=O)C(C)C)C(=O)N[C@@H](Cc1c[nH]cn1)C(=O)NCC(=O)N[C@@H](Cc1c[nH]cn1)C(=O)N[C@@H](CC(=O)O)C(=O)NCC(=O)N[C@@H](CO)C(=O)N[C@@H](CC(N)=O)C(=O)N[C@@H](CCCCN)C(=O)NCC(=O)N[C@@H](CO)C(=O)N[C@@H](CCCCN)C(=O)N[C@H](C(=O)N[C@@H](Cc1ccc(O)cc1)C(=O)N[C@H](C(N)=O)[C@@H](C)O)[C@@H](C)O [Peptide 1] please.
217000

Give the reported value of kon at 0.5 µM for this record: CC[C@H](C)[C@@H]1NC(=O)[C@H](Cc2ccccc2)NC(=O)[C@H](C(C)C)NC(=O)[C@H](CO)NC(=O)[C@H](Cc2c[nH]c3ccccc23)NC(=O)[C@H](CCSC)NC(=O)CCNC(=O)CCNC(=O)[C@H]([C@@H](C)O)NC(=O)[C@H](Cc2ccc(O)cc2)NC(=O)[C@H]([C@@H](C)O)NC(=O)[C@H](CCCCN)NC(=O)[C@H](CO)NC(=O)CNC(=O)[C@H](CCCCN)NC(=O)[C@H](CC(N)=O)NC(=O)[C@H](CO)NC(=O)CNC(=O)[C@H](CC(=O)O)NC(=O)[C@H](Cc2c[nH]cn2)NC(=O)CNC(=O)[C@H](Cc2c[nH]cn2)NC1=O [Peptide 2]
213000

For CC[C@H](C)[C@@H]1NC(=O)[C@H](Cc2ccccc2)NC(=O)[C@H](C(C)C)NC(=O)[C@@H](NC(=O)[C@H](Cc2c[nH]c3ccccc23)NC(=O)[C@H](CCSC)NC(C)=O)CSCc2ccccc2CSC[C@@H](C(=O)N[C@@H](Cc2ccc(O)cc2)C(=O)N[C@H](C(N)=O)[C@@H](C)O)NC(=O)[C@H](CCCCN)NC(=O)[C@H](CO)NC(=O)CNC(=O)[C@H](CCCCN)NC(=O)[C@H](CC(N)=O)NC(=O)[C@H](CO)NC(=O)CNC(=O)[C@H](CC(=O)O)NC(=O)[C@H](Cc2c[nH]cn2)NC(=O)CNC(=O)[C@H](Cc2c[nH]cn2)NC1=O [Peptide 6] , write its kon at 0.5 µM.
304000

Where do the numbers come from? From paper PMC12813973.
